# Subject of test: human nAChRα6-α3 chimera, in addition to β2 and β3^V273S subunits (Homo sapiens, UniProt P32297+Q15825)
# Construct: expressed in transfected cells
# Sequence (Q05901 25-458 V273S): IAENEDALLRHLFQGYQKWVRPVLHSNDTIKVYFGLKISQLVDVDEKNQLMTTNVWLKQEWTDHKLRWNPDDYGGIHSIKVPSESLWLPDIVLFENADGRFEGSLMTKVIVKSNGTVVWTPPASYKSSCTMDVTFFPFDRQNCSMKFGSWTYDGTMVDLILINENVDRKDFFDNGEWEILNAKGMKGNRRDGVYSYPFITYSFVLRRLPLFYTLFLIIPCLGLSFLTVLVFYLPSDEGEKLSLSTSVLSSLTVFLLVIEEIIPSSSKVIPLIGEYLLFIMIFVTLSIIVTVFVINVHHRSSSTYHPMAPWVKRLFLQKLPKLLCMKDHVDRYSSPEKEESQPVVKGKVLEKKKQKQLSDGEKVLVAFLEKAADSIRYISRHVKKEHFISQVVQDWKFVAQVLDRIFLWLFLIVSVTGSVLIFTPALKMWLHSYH
# Sequence (P17787 26-502, stated change not applied, further chain): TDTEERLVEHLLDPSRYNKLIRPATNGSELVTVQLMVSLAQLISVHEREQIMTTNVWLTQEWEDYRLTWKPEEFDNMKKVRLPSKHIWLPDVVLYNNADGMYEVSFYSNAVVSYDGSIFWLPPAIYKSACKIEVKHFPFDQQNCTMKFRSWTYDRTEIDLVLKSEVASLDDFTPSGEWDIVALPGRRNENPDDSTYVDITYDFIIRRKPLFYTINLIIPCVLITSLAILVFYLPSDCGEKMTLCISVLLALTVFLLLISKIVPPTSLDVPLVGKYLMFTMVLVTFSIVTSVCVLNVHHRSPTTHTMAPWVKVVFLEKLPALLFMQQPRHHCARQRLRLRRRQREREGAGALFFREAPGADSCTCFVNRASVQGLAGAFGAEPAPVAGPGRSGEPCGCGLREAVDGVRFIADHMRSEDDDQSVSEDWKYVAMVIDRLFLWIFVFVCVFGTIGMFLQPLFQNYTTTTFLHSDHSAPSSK
# Sequence (Q15825+P32297 fused with the stated changes): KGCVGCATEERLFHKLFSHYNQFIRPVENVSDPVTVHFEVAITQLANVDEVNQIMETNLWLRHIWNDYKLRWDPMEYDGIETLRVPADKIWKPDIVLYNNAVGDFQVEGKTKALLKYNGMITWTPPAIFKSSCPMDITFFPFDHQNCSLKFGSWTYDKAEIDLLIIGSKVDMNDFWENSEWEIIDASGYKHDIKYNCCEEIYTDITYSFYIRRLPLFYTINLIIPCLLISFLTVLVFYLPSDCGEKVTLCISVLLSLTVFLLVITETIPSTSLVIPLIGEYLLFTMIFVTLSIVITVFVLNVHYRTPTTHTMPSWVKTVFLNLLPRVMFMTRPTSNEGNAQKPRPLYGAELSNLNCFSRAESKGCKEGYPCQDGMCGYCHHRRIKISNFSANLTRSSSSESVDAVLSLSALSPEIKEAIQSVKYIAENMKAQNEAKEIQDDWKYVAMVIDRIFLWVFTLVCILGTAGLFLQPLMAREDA
# Assay overview: fluorescence-based calcium assay: inhibition of nicotine stimulated nAChRα6 activity (FLIPR)
# Measurement parameters: HEK cell line stably expressing the receptor; 10 min pre-incubation, nicotine EC80; 10-point curve, duplicate wells; read-out: IC50
Just a reminder that ties go to Not satisfied: only IC50 strictly below 70 nM counts as Satisfied.

Item Cc1nc(NC[C@@H]2CCCN2C)ncc1-c1ccc(F)cc1C(F)(F)F [Example 92b] : IC50 beneath 70 nM, strictly? Not satisfied

Item Cc1nc(NCCC2CCCN2C)ncc1-c1ccccc1 (stereo not shown) : IC50 beneath 70 nM, strictly? Satisfied

Item Cc1nc(NC2CC(N(C)C)C2)ncc1-c1ccc(F)cc1F (single isomer, unassigned) [Example 68a] : IC50 beneath 70 nM, strictly? Not satisfied

Item COc1ccc(F)c(-c2cnc(NCC3CCCN(C)C3)nc2C)c1 (stereo not shown) : IC50 beneath 70 nM, strictly? Not satisfied

Item COc1ccc(-c2cnc(NCC3CCCN3C)nc2C)c(F)c1 (single isomer, unassigned) [Example 28a] : IC50 beneath 70 nM, strictly? Satisfied

Item CCN1CCC[C@H]1CNc1ncc(-c2ccc(C(F)(F)F)cc2F)c(C)n1 : IC50 beneath 70 nM, strictly? Satisfied

Item Cc1nc(NC(C)[C@H]2CCCN2C)ncc1-c1ccc(C(F)(F)F)cc1F (single isomer, unassigned) [Example 131a] : IC50 beneath 70 nM, strictly? Not satisfied

Item COc1ccc(-c2cnc(NC3CCC(N(C)C)C3)nc2C#N)c(F)c1 (single isomer, unassigned) [Example 38a] : IC50 beneath 70 nM, strictly? Satisfied

Item Cc1nc(NCC[C@@H]2CCCN2C)ncc1-c1ccc(C(F)(F)F)cc1F [Example 106b] : IC50 beneath 70 nM, strictly? Not satisfied

Item Cc1nc(NC(C)[C@@H]2CCCN2)ncc1-c1ccc(C(F)(F)F)cc1F (single isomer, unassigned) [Example 130a] : IC50 beneath 70 nM, strictly? Not satisfied

Item Cc1nc(NC2CC(N(C)C)C2)ncc1-c1ccc(F)cc1F (single isomer, unassigned) [Example 68b] : IC50 beneath 70 nM, strictly? Satisfied

Item Cc1nc(NCC2N(C)CCC2(F)F)ncc1-c1ccc(F)cc1F (single isomer, unassigned) [Example 84a] : IC50 beneath 70 nM, strictly? Not satisfied

Item COc1ccc(-c2cnc(NCCC3CCCN3C)nc2C#N)c(F)c1 (stereo not shown) : IC50 beneath 70 nM, strictly? Satisfied

Item COc1ccc(-c2cnc(NCC3CN(C)CCO3)nc2C)c(F)c1 (stereo not shown) : IC50 beneath 70 nM, strictly? Not satisfied

Item COc1ccc(-c2nnc(NCC3CCCCN3C)nc2C)c(F)c1 (single isomer, unassigned) [Example 57a] : IC50 beneath 70 nM, strictly? Not satisfied

Item Cc1nc(NCCC2CCCN2C)ncc1-c1ccc(F)cc1F (stereo not shown) : IC50 beneath 70 nM, strictly? Satisfied

Item Cc1nc(NC[C@H]2CCCN2)ncc1-c1ccc(C(F)(F)F)cc1F : IC50 beneath 70 nM, strictly? Satisfied

Item Cc1nc(NC2CCCC(N(C)C)C2)nnc1-c1ccc(F)cc1F (single isomer, unassigned) [Example 39b] : IC50 beneath 70 nM, strictly? Not satisfied

Item Cc1nc(NC2CC(C)(C)NC(C)(C)C2)ncc1-c1ccc(C(F)(F)F)cc1F : IC50 beneath 70 nM, strictly? Not satisfied

Item CN1CCCCC1CNc1ncc(-c2ccc(F)cc2)cn1 (stereo not shown) : IC50 beneath 70 nM, strictly? Not satisfied

Item CCN1CCC[C@@H](Nc2ncc(-c3ccc(F)cc3F)c(C)n2)C1 (single isomer, unassigned) [Example 78a] : IC50 beneath 70 nM, strictly? Satisfied

Item Cc1nc(NCC2CCN(C)CC2)ncc1-c1ccc(C(F)(F)F)cc1F : IC50 beneath 70 nM, strictly? Not satisfied

Item Cc1nc(NC(C)[C@H]2CCCN2C)ncc1-c1ccc(C(F)(F)F)cc1F (single isomer, unassigned) [Example 131b] : IC50 beneath 70 nM, strictly? Not satisfied

Item COc1ccc(-c2nnc(NC3CCCN(C)C3)nc2C)c(F)c1 (single isomer, unassigned) [Example 69b] : IC50 beneath 70 nM, strictly? Not satisfied

Item Cc1nc(NC[C@H]2CN(C)CCO2)ncc1-c1ccc(C(F)(F)F)cc1F (single isomer, unassigned) [Example 108b] : IC50 beneath 70 nM, strictly? Not satisfied

Item Cc1nc(NC[C@@H]2CCCNC2)ncc1-c1ccc(C(F)(F)F)cc1F : IC50 beneath 70 nM, strictly? Satisfied

Item COc1ccc(-c2cnc(NC3CCCOC3)nc2C)c(F)c1 (stereo not shown) : IC50 beneath 70 nM, strictly? Not satisfied

Item COc1ccc(-c2nnc(NCC3CCCN3C)nc2C)c(F)c1 (racemic) [Example 18] : IC50 beneath 70 nM, strictly? Not satisfied

Item Cc1nc(NC[C@@H]2CCCN2C)ncc1-c1ccc(F)cc1F [Example 24a] : IC50 beneath 70 nM, strictly? Satisfied

Item Cc1nc(NCC2(N(C)C)CCCC2)ncc1-c1ccc(F)cc1F : IC50 beneath 70 nM, strictly? Not satisfied

Item CN1CCCC1CCNc1ncc(-c2ccc(F)cc2)cn1 (stereo not shown) : IC50 beneath 70 nM, strictly? Not satisfied
